system: Mdr1a; assay: Efflux ratio of permeability across pig LLC-PK1 cells expressing mouse Mdr1a at 1 uM after 3.5 hrs by LC-MS/MS analysis; format: ADME, cell-based, Sus scrofa
OBSERVED PROPERTY: efflux ratio at 3.5 h, 1 µM

N#CC1(NC(=O)[C@@H]2Cc3ccc(c(Cl)c3)OCCCCOc3cc(C(F)(F)F)ccc3C(=O)N2)CC1 :: 53

Next compound, please.
[in] # return recorded efflux ratio at 3.5 h, 1 µM for input N#CC1(NC(=O)[C@@H]2Cc3ccc(c(Cl)c3)OCCCCOc3cc4c(cc3C(=O)N2)CCCC4)CC1
[out] 38

----------
test system: Trypanosoma brucei rhodesiense; test: Antitrypanosomal activity against bloodstream form of Trypanosoma brucei rhodesiense STIB 900 assessed as parasite growth inhibition after 72 hrs by Alamar blue assay; type: functional
OBSERVED PROPERTY: IC50
Value and unit, in that order.

[in] # return recorded IC50 for input N#CC1(NC(=O)[C@@H]2Cc3ccc(c(Cl)c3)OCC#CCOc3c(F)cc(F)cc3C(=O)N2)CC1 (single isomer, unassigned; atropisomer 2)
[out] 4 nM
